# test.target: CDK7/Cyclin H/MAT1 complex (Homo sapiens)
# Sequence (P50613 whole entry): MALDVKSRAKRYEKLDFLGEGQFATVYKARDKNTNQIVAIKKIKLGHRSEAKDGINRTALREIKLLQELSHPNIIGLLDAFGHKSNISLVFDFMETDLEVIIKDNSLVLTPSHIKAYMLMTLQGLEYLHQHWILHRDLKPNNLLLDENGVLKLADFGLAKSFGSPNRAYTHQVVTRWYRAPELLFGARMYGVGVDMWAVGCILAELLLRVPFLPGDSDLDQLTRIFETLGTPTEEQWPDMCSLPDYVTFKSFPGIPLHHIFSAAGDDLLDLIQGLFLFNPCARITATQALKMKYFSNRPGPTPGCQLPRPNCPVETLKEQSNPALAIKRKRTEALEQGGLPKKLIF
# Sequence (P51946 whole entry partner): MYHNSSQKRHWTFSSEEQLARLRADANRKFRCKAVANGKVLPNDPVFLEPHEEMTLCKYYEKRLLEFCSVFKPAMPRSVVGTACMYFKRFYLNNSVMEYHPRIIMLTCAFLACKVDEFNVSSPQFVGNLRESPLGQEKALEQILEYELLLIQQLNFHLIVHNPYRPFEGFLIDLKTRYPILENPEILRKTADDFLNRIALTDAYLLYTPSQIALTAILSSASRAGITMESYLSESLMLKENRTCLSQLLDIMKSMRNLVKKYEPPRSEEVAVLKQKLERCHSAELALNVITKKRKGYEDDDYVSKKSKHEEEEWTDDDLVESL
# Sequence (P51948 whole entry partner): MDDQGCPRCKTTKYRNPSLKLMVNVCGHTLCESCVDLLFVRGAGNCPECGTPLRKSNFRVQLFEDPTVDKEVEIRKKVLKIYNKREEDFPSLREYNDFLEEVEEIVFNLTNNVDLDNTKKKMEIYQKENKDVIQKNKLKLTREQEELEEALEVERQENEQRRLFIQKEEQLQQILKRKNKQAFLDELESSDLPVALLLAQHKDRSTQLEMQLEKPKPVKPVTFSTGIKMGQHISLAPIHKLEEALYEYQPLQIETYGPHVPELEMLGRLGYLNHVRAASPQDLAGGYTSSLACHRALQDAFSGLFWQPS
# procedure.details: CDK7 kinase inhibition assay (Caliper/LabChip EZ Reader)
# experimental.context: CDK7/Cyclin H/MAT1 6 nM, ATP 2 mM, 35 min at 27° C.
endpoint.name: IC50

Examples with their reported IC50 follow.
Return reported IC50; argument: CC1CCNCC1Nc1ncc(C(F)(F)F)c(-c2c[nH]c3ccccc23)n1 (stereo not drawn) [Compound 372]
20 to 200 nM

Return reported IC50; argument: `FC(F)(F)c1cnc(N[C@H]2CCCNC2)nc1-c1c[nH]c2ccc(Cl)cc12`
< 20 nM

Return reported IC50; argument: Clc1cnc(NC2CN3CCC2CC3)nc1-c1c[nH]c2ccccc12 (stereo not drawn)
≥ 5000 nM

Return reported IC50; argument: CC(C)CN1CCCC(Nc2ncc(Cl)c(-c3c[nH]c4ccccc34)n2)C1 (stereo not drawn)
20 to 200 nM

Return reported IC50; argument: OC1CNCC(Nc2ncc(C(F)(F)F)c(-c3c[nH]c4ccccc34)n2)C1 (stereo not drawn)
< 20 nM

New cases:
Return reported IC50; argument: Cn1cc(-c2ccc3c(-c4nc(NC5CCCNC5)ncc4C(F)(F)F)c[nH]c3c2)cn1 (stereo not drawn)
< 20 nM

Return reported IC50; argument: O=C(c1ccc2c(-c3nc(NC4CCCNC4)ncc3C(F)(F)F)c[nH]c2c1)N1CCC(O)(C(F)(F)F)C1 (stereo not drawn) [Compound 300]
< 20 nM

Return reported IC50; argument: O=S(=O)(CF)c1ccc2c(-c3nc(NC4CCCNC4)ncc3C(F)(F)F)c[nH]c2c1 (stereo not drawn)
< 20 nM

Return reported IC50; argument: `FC(F)(F)c1cnc(N[C@@H]2CNCc3ccccc32)nc1-c1c[nH]c2ccccc12`
20 to 200 nM
